# Assay: chemical genetic growth profiling, strain panel (AID 1159580);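 further: tested at 20 µM; growth read once vehicle control cultures reached saturation at 30 °C; 1 = growth at the plate median or of vehicle wells; lower values mean less growth of the strain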
# Settings: S. cerevisiae deletion strains, growth OD, locus YLL041C, strain sdh2, active compounds read low
Out of some 5,500 compounds screened, about 2,000 (36%) were called active. About 18% were inconclusive and are not listed. Some of the results follow.
Measurement name: normalized growth
Kindly provide the number alone.

Example entries and their recorded answers appear below.
>  <Line notation>
CC1=CC(=O)c2ccccc2C1=O

>  <Measurement name>
normalized growth

>  <Experimental result>
1.04

$$$$
>  <Line notation>
CS(=O)(=O)c1ccc([C@@H](O)[C@@H](CO)NC(=O)C(Cl)Cl)cc1

>  <Measurement name>
normalized growth

>  <Experimental result>
1.02

$$$$
>  <Line notation>
O=C(O)c1cc(O)c2c(c1)[C@@H]([C@H]1c3cc(C(=O)O)cc(O)c3C(=O)c3c(O[C@H]4O[C@H](CO)[C@@H](O)[C@H](O)[C@H]4O)cccc31)c1cccc(O[C@H]3O[C@H](CO)[C@@H](O)[C@H](O)[C@H]3O)c1C2=O

>  <Measurement name>
normalized growth

>  <Experimental result>
1.01

$$$$
>  <Line notation>
CCN(CC)CCOCCOC(=O)C1(c2ccccc2)CCCC1

>  <Measurement name>
normalized growth

>  <Experimental result>
1

$$$$
>  <Line notation>
Oc1c(Cl)cc(Cl)cc1Sc1cc(Cl)cc(Cl)c1O

>  <Measurement name>
normalized growth

>  <Experimental result>
0.0561

$$$$

Continue with the compound presented below.
normalized growth lookup needed for Cc1scc2c1N(C(=O)CN1CCN(C)CC1)c1ccccc1NC2=O , thanks. 0.968

====

# Assay: chemical genetic growth profiling, strain panel (AID 1159580)
# Settings: S. cerevisiae deletion strains, growth OD, locus YGL240W, strain doc1, active compounds read low
About 2,000 (36%) of roughly 5,500 compounds were called active. Another 18% or so got no clear call; they are omitted. Some of the results follow.
Measurement name: normalized growth
Kindly provide the number alone.

Example entries and their recorded answers appear below.
>  <Molecule>
NCC(N)C(=O)c1ccccc1 (stereo not drawn)

>  <normalized growth>
1.01

$$$$
>  <Molecule>
O=C1NC(O)=NC1(c1ccccc1)c1ccccc1

>  <normalized growth>
1.01

$$$$
>  <Molecule>
CC(C)=CCCC(C)[C@@H]1CC[C@]2(C)C3=C(CC[C@@]12C)C1(C)CC[C@H](O)C(C)(C)C1CC3 (stereo partly drawn)

>  <normalized growth>
1.02

$$$$
>  <Molecule>
CN(C)[C@@H]1C(=O)C(C(=O)NCN2CCCC2)=C(O)[C@@]2(O)C(=O)C3=C(O)c4c(O)cccc4[C@@](C)(O)[C@H]3C[C@@H]12

>  <normalized growth>
0.987

$$$$
>  <Molecule>
Cc1cc(=O)oc2cc(O)cc(O)c12

>  <normalized growth>
0.971

$$$$

normalized growth lookup needed for O=C(OOC(=O)c1ccccc1)c1ccccc1 , thanks. 0.989

normalized growth lookup needed for CC(C)NCC(O)COc1ccc(COCCOC(C)C)cc1 (stereo not drawn) , thanks. 1

====

# Assay: chemical genetic growth profiling, strain panel (AID 1159580)
# Settings: S. cerevisiae deletion strains, growth OD, locus YER016W, strain bim1, active compounds read low
Hit rate of the full screen: of about 5,500 compounds, about 2,000 (36%) were called active. Inconclusive results (about 18%) are left out. The list shows a part of the results.
In this section we review reported normalized growth values for a set of compounds.
Kindly provide the number alone.

Example entries and their recorded answers appear below.
>  <Line notation>
CN(C)C(=O)Oc1cccc([N+](C)(C)C)c1

>  <Measurement name>
normalized growth

>  <Experimental result>
1.01

$$$$
>  <Line notation>
CN(C)CCCN1c2ccccc2Sc2ccccc21

>  <Measurement name>
normalized growth

>  <Experimental result>
0.986

$$$$
>  <Line notation>
NC(=O)NC(=O)Cc1ccccc1

>  <Measurement name>
normalized growth

>  <Experimental result>
0.96

$$$$

Continue with the compound presented below.
normalized growth lookup needed for O=C(CC(=O)c1ccccc1)c1ccccc1 , thanks. 0.544

====

# Assay: chemical genetic growth profiling, strain panel (AID 1159580)
# Settings: S. cerevisiae deletion strains, growth OD, locus YKL085W, strain MDH1, active compounds read low
In all, about 5,500 compounds went through this assay and about 2,000 (36%) were called active. Another 18% or so got no clear call; they are omitted. The list shows a part of the results.
Measurement name: normalized growth
Kindly provide the number alone.

Example entries and their recorded answers appear below.
>  <Molecule>
CCC(C)[C@H]1O[C@]2(C=C[C@@H]1C)C[C@@H]1C[C@@H](C/C=C(\C)[C@@H](OC3C[C@H](OC)C(O[C@H]4C[C@H](OC)[C@@H](O)[C@H](C)O4)[C@H](C)O3)[C@@H](C)/C=C/C=C3\CO[C@@H]4[C@H](O)C(C)=C[C@@H](C(=O)O1)[C@]34O)O2 (stereo partly drawn)

>  <normalized growth>
0.981

$$$$
>  <Molecule>
CC(C)c1ccc2c(c1)CCC1C(C)(C(N)=O)CCCC21C (stereo not drawn)

>  <normalized growth>
0.944

$$$$
>  <Molecule>
COC(=O)c1c(C)c2c(c(C)c1O)OC(=O)c1c(C)c(Cl)c(O)c(Cl)c1O2

>  <normalized growth>
1.01

$$$$
>  <Molecule>
CC(C)c1ccc2c(c1)CCC1[C@](C)(CN)CCC[C@]21C (stereo partly drawn)

>  <normalized growth>
0.978

$$$$
>  <Molecule>
NC1=NCCN1CC(=O)O

>  <normalized growth>
0.983

$$$$

normalized growth lookup needed for CS(=O)(=O)Nc1ccc([N+](=O)[O-])cc1Oc1ccccc1 , thanks. 0.99

normalized growth lookup needed for CCN1CCN(C(=O)NC(C(=O)N[C@@H]2C(=O)N3[C@@H]2SC(C)(C)[C@@H]3C(=O)O)c2ccccc2)C(=O)C1=O (stereo partly drawn) , thanks. 0.998

====

# Assay: chemical genetic growth profiling, strain panel (AID 1159580);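 further: tested at 20 µM; growth read once vehicle control cultures reached saturation at 30 °C; 1 = growth at the plate median or of vehicle wells; lower values mean less growth of the strain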
# Settings: S. cerevisiae deletion strains, growth OD, locus YOR184W, strain ser1, active compounds read low
The campaign covered roughly 5,500 compounds. About 2,000 (36%) were called active. Inconclusive results (about 18%) are left out. This is one part of the list.
In this section we review reported normalized growth values for a set of compounds.

>  <Line notation>
O=C(O)C1=CCCNC1

>  <normalized growth>
0.97 (inactive)

$$$$
>  <Line notation>
CNCCCC12CCC(c3ccccc31)c1ccccc12

>  <normalized growth>
1.02 (inactive)

$$$$
>  <Line notation>
CNNC

>  <normalized growth>
1 (inactive)

$$$$

normalized growth lookup needed for CCOC(=O)NNc1nncc2ccccc12 , thanks. 0.98 (inactive)

normalized growth lookup needed for N[C@@H](CCC(=O)N[C@@H](CS)C(=O)NCC(=O)O)C(=O)O , thanks. 0.989 (inactive)

normalized growth lookup needed for CN(C)CCCN1c2ccccc2CCc2ccccc21 , thanks. 1.02 (inactive)

====

# Assay: chemical genetic growth profiling, strain panel (AID 1159580);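 further: tested at 20 µM; growth read once vehicle control cultures reached saturation at 30 °C; 1 = growth at the plate median or of vehicle wells; lower values mean less growth of the strain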
# Settings: S. cerevisiae deletion strains, growth OD, locus YBR009C, strain hhf1
Hit rate of the full screen: of about 5,500 compounds, about 2,000 (36%) were called active. Another 18% or so got no clear call; they are omitted. No stated cut-off is given here; in the data, active means normalized growth mostly below about 0.91 (no sharp cut-off); inconclusive means no clear call, values can overlap the other calls; inactive means mostly above about 0.92. The list shows a part of the results.
Returns: one label drawn from 1 (yes) (active), 0 (no) (inactive)

>  <Compound>
CCN(CC)CCOCCOC(=O)C1(c2ccccc2)CCCC1

>  <Assigned label>
0 (no)

$$$$
>  <Compound>
CC(C)c1ccc2c(c1)CCC1[C@](C)(CN)CCC[C@]21C (some centres not stated)

>  <Assigned label>
0 (no)

$$$$
>  <Compound>
CN(C)CCCN1c2ccccc2Sc2ccccc21

>  <Assigned label>
0 (no)

$$$$
>  <Compound>
CC1=CC(=O)c2ccccc2C1=O

>  <Assigned label>
1 (yes)

$$$$
>  <Compound>
CN1CCN(C(=O)OC2c3nccnc3C(=O)N2c2ccc(Cl)cn2)CC1 (configuration not stated)

>  <Assigned label>
0 (no)

$$$$
>  <Compound>
OC[C@H]1O[C@@](CO)(O[C@@H]2O[C@H](CO)[C@@H](O)[C@H](O)[C@H]2O)[C@@H](O[C@@H]2O[C@H](CO)[C@@H](O)[C@H](O)[C@H]2O)[C@@H]1O

>  <Assigned label>
0 (no)

$$$$

Attention now shifts to the item below.
For this compound, state the assay outcome: CC1(C)CC2C1CC[C@]1(CBr)CCC3C(CC(=O)O)C(=O)O[C@@]32C1 (some centres not stated) 0 (no)

====

# Assay: chemical genetic growth profiling, strain panel (AID 1159580);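 further: tested at 20 µM; growth read once vehicle control cultures reached saturation at 30 °C; 1 = growth at the plate median or of vehicle wells; lower values mean less growth of the strain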
# Settings: S. cerevisiae deletion strains, growth OD, locus YGL253W, strain hxk2, active compounds read low
In all, about 5,500 compounds went through this assay and about 2,000 (36%) were called active. Roughly 18% stayed inconclusive and do not appear here. The list shows a part of the results.
Measurement name: normalized growth
Kindly provide the number alone.

Example entries and their recorded answers appear below.
>  <Compound>
O=C(O)c1ccccc1

>  <normalized growth>
0.965

$$$$
>  <Compound>
Nc1ccc(S(=O)(=O)NC(=O)c2ccccc2)cc1

>  <normalized growth>
0.989

$$$$
>  <Compound>
CC(=O)Oc1ccc(/C=C/c2cc(OC(C)=O)cc(OC(C)=O)c2)cc1

>  <normalized growth>
0.973

$$$$
>  <Compound>
CN(C)C(=O)Oc1cccc([N+](C)(C)C)c1

>  <normalized growth>
1.01

$$$$
>  <Compound>
CC(C)c1ccc2c(c1)CCC1C(C)(C(N)=O)CCCC21C (stereo unspecified)

>  <normalized growth>
0.951

$$$$

normalized growth lookup needed for CN(C)CCCN1c2ccccc2Sc2ccccc21 , thanks. 0.994

normalized growth lookup needed for CCOC(=O)[C@H](CCc1ccccc1)N[C@@H](C)C(=O)N1CCC[C@H]1C(=O)O , thanks. 0.987

normalized growth lookup needed for C/C=C\C1=C(C(=O)O)N2C(=O)C(NC(=O)C(N)c3ccc(O)cc3)C2SC1 (stereo unspecified) , thanks. 1.01

normalized growth lookup needed for CCCN(CCC)S(=O)(=O)c1ccc(C(=O)O)cc1 , thanks. 1

normalized growth lookup needed for CN(C)CCCN1c2ccccc2CCc2ccc(Cl)cc21 , thanks. 0.971

normalized growth lookup needed for CN(C)[C@@H]1C(=O)C(C(=O)NCN2CCCC2)=C(O)[C@@]2(O)C(=O)C3=C(O)c4c(O)cccc4[C@@](C)(O)[C@H]3C[C@@H]12 , thanks. 1.01
